These measurements were taken from patent US20210332145A1.

Please provide measured koff for the entries that follow.
Target: T1, human BCMA with a His tag (ACROBiosystems, Catalog No.: BCA-H522y) (human)
T1 construct: Bought His-tagged recombinant protein; also called huBCMA-His; Recombinant human BCMA
T1 chain: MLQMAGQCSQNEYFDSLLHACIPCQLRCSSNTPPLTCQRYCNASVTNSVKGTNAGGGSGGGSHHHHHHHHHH
Test: SPR, Biacore T200
Report the value in s⁻¹ with no unit label.

The value of koff measured for the binder SCT-Aa12(m/m) (antibody, V domains shown, Full IgG format: mouse IgG1 heavy chain constant region, mouse kappa light chain constant region) VH: QVQLQQSDAELVKPGASVKISCKVSGYTFTDYTIHWMKQRPEQGLEWIGYIFPSDGSTKYNEKFKGKATLTADKSSSTAYMQLNSLTSDDSAVYFCARWDYEGFDYWGQGTTLTVSS VL: DIVMTQSPATLSVTPGDRVSLSCRASQSISDYLNWYQQKSHESPRLLIKYASQSISGIPSRFSGSGSGSDFTLSINSVEPEDVGVYYCQNGHSFPPTFGSGTKLEIK turned out to be 0.011

The value of koff measured for the binder SCT-Aa08(h/h) (antibody, V domains shown, Full IgG format, chimeric: human IgG1 heavy chain constant region, human kappa light chain constant region) VH: QVQLQQSDAELVKPGASVKISCKVSGYTFIDHTIHWMKQRPEQGLEWIGYIYPRIDSSKCNEKFKDKATLTADKSSNTAYIQLNSLTSEDSAVYFCARWDYEGFDYWGQGTTLTVSS VL: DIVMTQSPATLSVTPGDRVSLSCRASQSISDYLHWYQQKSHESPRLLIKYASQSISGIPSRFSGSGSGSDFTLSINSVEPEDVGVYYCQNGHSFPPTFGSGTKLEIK turned out to be 0.0592

The value of koff measured for the binder SCT-Aa04(h/h) (antibody, V domains shown, Full IgG format, chimeric: human IgG1 heavy chain constant region, human kappa light chain constant region) VH: EVKLLQSGGGLVQPGGSLKLSCAASGIDFSRYWMSWVRRAPGKGLEWIGEINPDSSTINYAPSLKDKFIISRDNAKNTLYLQMSKVRSEDTALYYCASFYYDYDRGAAMDYWGQGTSVTVSS VL: DIVMTQSQKFMSTSVGDRVSVTCKASQNVGTNVAWYQQKPGQSPKALIYSASYRYSGVPDRFTGSGSGTDFTLTISNVQSEDLAEYFCQQYNSYPYTFGGGTKLEIK turned out to be 0.034
